Test system: MDR1
METHOD SUMMARY: MDCK-MDR1 permeability assay (BBB penetration potential)
Assay type: in vitro ADME
REPORTED CONDITIONS: dog, MDCK-MDR1, pH 7.4, MDCK-MDR1: Papp B-A
Mark No for Papp B→A at 120 min, 5 μM values under 30 ×10⁻⁶ cm/s, and Yes for everything at or above.

Record Cn1cc(-c2ccc(-c3ccc(O[C@@H]4C[C@H]5COC[C@H](N5)[C@@H]4F)nn3)c(O)c2)cn1 (single isomer, unassigned) ; criterion: Papp B→A at 120 min, 5 μM no lower than 30 ×10⁻⁶ cm/s. Met? Yes

Record Cc1ccc(-c2ccc(-c3ccc(O[C@H]4C[C@@H]5CCC[C@@H](N5)[C@H]4F)nn3)c(O)c2)s1 (single isomer, unassigned) ; criterion: Papp B→A at 120 min, 5 μM no lower than 30 ×10⁻⁶ cm/s. Met? No

Record Oc1cc(-c2ccnnc2)ccc1-c1ccc(O[C@H]2C[C@@H]3CCC[C@@H](N3)[C@H]2F)nn1 (single isomer, unassigned) ; criterion: Papp B→A at 120 min, 5 μM no lower than 30 ×10⁻⁶ cm/s. Met? Yes

Record Oc1cc(-c2ccc3nccn3c2)ccc1-c1ccc(O[C@@H]2C[C@H]3CCC[C@H](N3)[C@@H]2F)nn1 (single isomer, unassigned) ; criterion: Papp B→A at 120 min, 5 μM no lower than 30 ×10⁻⁶ cm/s. Met? No

Record O=c1cc(-c2ccc(-c3ccc(O[C@@H]4C[C@H]5CCC[C@H](N5)[C@@H]4F)nn3)c(O)c2)cc[nH]1 (single isomer, unassigned) ; criterion: Papp B→A at 120 min, 5 μM no lower than 30 ×10⁻⁶ cm/s. Met? No

Record Oc1cc(-n2ccnc2)ccc1-c1ccc(O[C@@H]2C[C@H]3CC(F)(F)[C@@H](C2)N3)nn1 (single isomer, unassigned) ; criterion: Papp B→A at 120 min, 5 μM no lower than 30 ×10⁻⁶ cm/s. Met? Yes

Record C[C@]12CCC[C@](C)(N1)[C@H](F)[C@H](Oc1ccc(-c3ccc(-c4cn[nH]c4)cc3O)nn1)C2 (single isomer, unassigned) ; criterion: Papp B→A at 120 min, 5 μM no lower than 30 ×10⁻⁶ cm/s. Met? Yes

----------
Test system: MDR1
METHOD SUMMARY: MDCK-MDR1 permeability assay (BBB penetration potential)
Format: in vitro ADME
REPORTED CONDITIONS: dog, MDCK-MDR1, pH 7.4, MDCK-MDR1: Papp A-B
READOUT: Papp A→B at 120 min, 5 μM
Form entry: enter the amount, then its unit.

Which value of Papp A→B at 120 min, 5 μM has been reported for Cc1ccc(-c2ccc(-c3ccc(O[C@H]4C[C@@H]5CCC[C@@H](N5)[C@H]4F)nn3)c(O)c2)o1 (single isomer, unassigned) [99-ENT2] in the records? 6.11 ×10⁻⁶ cm/s

Which value of Papp A→B at 120 min, 5 μM has been reported for Oc1cc(-c2cc[nH]n2)ccc1-c1ccc(O[C@@H]2C[C@H]3CCC[C@H](N3)[C@@H]2F)nn1 (single isomer, unassigned) [66-ENT1] in the records? 0.93 ×10⁻⁶ cm/s

Which value of Papp A→B at 120 min, 5 μM has been reported for Cc1cncc(-c2ccc(-c3ccc(O[C@@H]4C[C@H]5CCC[C@H](N5)[C@@H]4F)nn3)c(O)c2)c1 (single isomer, unassigned) [89-ENT1] in the records? 6.05 ×10⁻⁶ cm/s

Which value of Papp A→B at 120 min, 5 μM has been reported for Oc1cc2ncccc2cc1-c1ccc(O[C@H]2C[C@@H]3CCC[C@@H](N3)[C@H]2F)nn1 (single isomer, unassigned) [103-ENT2] in the records? 5.15 ×10⁻⁶ cm/s

Which value of Papp A→B at 120 min, 5 μM has been reported for Cc1cc(-c2ccc(-c3ccc(O[C@@H]4C[C@H]5CCC[C@H](N5)[C@@H]4F)nn3)c(O)c2)cs1 (single isomer, unassigned) [101-ENT1] in the records? 0.86 ×10⁻⁶ cm/s

Which value of Papp A→B at 120 min, 5 μM has been reported for Cn1cc(-c2ccc(-c3ccc(O[C@@H]4C[C@H]5COC[C@H](N5)[C@@H]4F)nn3)c(O)c2)cn1 (single isomer, unassigned) [124-ENT1] in the records? 17.5 ×10⁻⁶ cm/s

Which value of Papp A→B at 120 min, 5 μM has been reported for Cn1cc(-c2ccc(-c3ccc(O[C@@H]4C[C@@H]5CCC[C@@H](N5)[C@@H]4F)nn3)c(O)c2)cn1 (single isomer, unassigned) [122-ENT2] in the records? 6.08 ×10⁻⁶ cm/s

Which value of Papp A→B at 120 min, 5 μM has been reported for Cn1ccc2cc(O)c(-c3ccc(O[C@H]4C[C@@H]5CC[C@@H](N5)[C@H]4F)nn3)cc2c1=O (single isomer, unassigned) [129-ENT1] in the records? 4.29 ×10⁻⁶ cm/s

Which value of Papp A→B at 120 min, 5 μM has been reported for Oc1cc(-c2ccc3nncn3c2)ccc1-c1ccc(O[C@@H]2C[C@H]3CCC[C@H](N3)[C@@H]2F)nn1 (single isomer, unassigned) [73-ENT1] in the records? 0.44 ×10⁻⁶ cm/s

Which value of Papp A→B at 120 min, 5 μM has been reported for Oc1cc(-c2nnco2)c(F)cc1-c1ccc(O[C@@H]2C[C@H]3CC[C@H](N3)[C@@H]2F)nn1 (single isomer, unassigned) [142-ENT2] in the records? 9.4 ×10⁻⁶ cm/s

Which value of Papp A→B at 120 min, 5 μM has been reported for Cn1cc(-c2cc(O)c(-c3ccc(O[C@@H]4C[C@H]5CCC[C@H](N5)[C@@H]4F)nn3)c(F)c2)cn1 (single isomer, unassigned) [118-ENT1] in the records? 6.21 ×10⁻⁶ cm/s

Which value of Papp A→B at 120 min, 5 μM has been reported for CNC(=O)c1ccc2cc(-c3ccc(O[C@@H]4C[C@H]5CCC[C@H](N5)[C@@H]4F)nn3)c(O)cc2n1 (single isomer, unassigned) [136-ENT2] in the records? 2.1 ×10⁻⁶ cm/s

Which value of Papp A→B at 120 min, 5 μM has been reported for Cn1cc(-c2ccc(-c3ccc(O[C@H]4C[C@@H]5CCC[C@@H](N5)[C@H]4F)nn3)c(O)c2)cn1 (single isomer, unassigned) [1-ENT2] in the records? 6.05 ×10⁻⁶ cm/s

Which value of Papp A→B at 120 min, 5 μM has been reported for Cc1cncc(-c2ccc(-c3ccc(O[C@H]4C[C@@H]5CCC[C@@H](N5)[C@H]4F)nn3)c(O)c2)c1 (single isomer, unassigned) [89-ENT2] in the records? 2.61 ×10⁻⁶ cm/s

Which value of Papp A→B at 120 min, 5 μM has been reported for Cn1cc(-c2ccc(-c3ccc(O[C@H]4C[C@]5(C)CCC[C@@](C)(N5)[C@H]4F)nn3)c(O)c2)cn1 (single isomer, unassigned) [154-ENT1] in the records? 9.33 ×10⁻⁶ cm/s

Which value of Papp A→B at 120 min, 5 μM has been reported for Cn1ccc(-c2cc(O)c(-c3ccc(O[C@@H]4C[C@H]5CCC[C@H](N5)[C@@H]4F)nn3)cc2F)cc1=O (single isomer, unassigned) [58-ENT1] in the records? 0.92 ×10⁻⁶ cm/s

Which value of Papp A→B at 120 min, 5 μM has been reported for Oc1cc(-c2nnco2)c(F)cc1-c1ccc(O[C@@H]2C[C@H]3CCC[C@H](N3)[C@@H]2F)nn1 (single isomer, unassigned) [143-ENT2] in the records? 6.91 ×10⁻⁶ cm/s

Which value of Papp A→B at 120 min, 5 μM has been reported for C[C@]12CCC[C@](C)(N1)[C@H](F)[C@H](Oc1ccc(-c3ccc(-c4cn[nH]c4)cc3O)nn1)C2 (single isomer, unassigned) [147-ENT2] in the records? 4.46 ×10⁻⁶ cm/s

Which value of Papp A→B at 120 min, 5 μM has been reported for Oc1cc(-n2ccnc2)ccc1-c1ccc(O[C@@H]2C[C@H]3CC[C@H](N3)[C@@H]2F)nn1 (single isomer, unassigned) [36-ENT1] in the records? 5.28 ×10⁻⁶ cm/s

Which value of Papp A→B at 120 min, 5 μM has been reported for Oc1cc(-c2cn[nH]c2)ccc1-c1ccc(O[C@@H]2C[C@H]3CC[C@H](N3)[C@H]2F)nn1 (single isomer, unassigned) [43-ENT2] in the records? 6.27 ×10⁻⁶ cm/s

Which value of Papp A→B at 120 min, 5 μM has been reported for Oc1cc(-c2cn[nH]c2)c(F)cc1-c1ccc(O[C@@H]2C[C@H]3CCC[C@H](N3)[C@@H]2F)nn1 (single isomer, unassigned) [56-ENT1] in the records? 2.63 ×10⁻⁶ cm/s
